B1: E3 ubiquitin-protein ligase Midline-1, residues 172 to 214; numbered along this chain, O15344 (parent)
chain: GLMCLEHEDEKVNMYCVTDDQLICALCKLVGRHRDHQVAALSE

- Variants of: B1
- EXPERIMENT SUMMARY: abundance fitness (aPCA) (normalised: wild type 0, dead -1); higher = more abundant; growth selection in yeast, the domain comes from the species named
- MEASUREMENT CONTEXT: Homo sapiens
PROPERTY NAME: abundance fitness

H33R ... -0.732
E8D ... -0.165
A25G ... 0.105
E6C ... -0.447
D19G ... -0.72

Provide abundance fitness for all items below, preserving their order.
1. A40R
2. A40D
3. R32L

Response given:
1: -0.019; 2: 0.031; 3: -0.058
